Measured IC50, listed per entry.
test system: L1210 cells; assay: Cytotoxicity, murine L1210 leukemic cells; assay type: cell-based; conditions: Mus musculus, mean

| molecule | IC50 |
| --- | --- |
| CCN(CC)CCC(=O)c1ccc(C)cc1 | 21.5 µM |
| CCN(CC)CCC(=O)c1ccc(Cl)cc1 | 36.9 µM |
| CC[N+]1(C)CCC(O)(c2ccc(Cl)c(Cl)c2)C(C(=O)c2ccc(Cl)c(Cl)c2)C1 (stereo not shown) [Compound 12c] | 33.6 µM |
| CCN(CC)CCC(=O)/C=C/c1ccc(Cl)c(Cl)c1 | 61.2 µM |
| CCN1CCC(O)(/C=C/c2cccc(C)c2)C(C(=O)/C=C/c2cccc(C)c2)C1 (stereo not shown) [Compound 13a] | 12.6 µM |
| CCN1CCC(O)(/C=C/c2ccc(OC)cc2)C(C(=O)/C=C/c2ccc(OC)cc2)C1 (stereo not shown) | 25.6 µM |
| CCN1CCC(O)(/C=C/c2ccc(C)cc2)C(C(=O)/C=C/c2ccc(C)cc2)C1 (stereo not shown) | 6.08 µM |
| CCN(CC)CCC(=O)/C=C/c1ccc(OC)cc1 | 44.3 µM |
| CCN1CCC(O)(/C=C/c2ccccc2)C(C(=O)/C=C/c2ccccc2)C1 (stereo not shown) | 5.3 µM |
| CCN(CC)CCC(=O)c1ccccc1 | 20.3 µM |
| CCN(CC)CCC(=O)/C=C/c1ccccc1 | 25.7 µM |
| CCN1CCC(O)(c2ccccc2)C(C(=O)c2ccccc2)C1 (stereo not shown) [Compound 11a] | 20.1 µM |
| CCN(CC)CC(C)(C)C(=O)/C=C/c1ccc(Cl)cc1 | 6.39 µM |
| CCN1CCC(O)(c2ccc(O)cc2)C(C(=O)c2ccc(O)cc2)C1 (stereo not shown) [Compound 11f] | 9.75 µM |
| CCN(CC)CCC(=O)/C=C/c1ccc(Cl)cc1 | 41 µM |
| CCN1CCC(O)(c2ccc(C)cc2)C(C(=O)c2ccc(C)cc2)C1 (stereo not shown) [Compound 11d] | 38.2 µM |
| O=C(/C=C/c1ccccc1)CCN1CCN(CCC(=O)/C=C/c2ccccc2)CC1 | 5.78 µM |
| O=C(CCN1CCN(CCC(=O)c2ccccc2)CC1)c1ccccc1 | 9.71 µM |
| CCN1CCC(O)(/C=C/c2ccc(C)c(C)c2)C(C(=O)/C=C/c2ccc(C)c(C)c2)C1 (stereo not shown) [Compound 13b] | 20.9 µM |

----------
Measured TIht (CEM cells), listed per entry.
system: CEM cells; experiment: Cytotoxicity, CEM human T-lymphocytes; settings: IC50 T-lymphocytes (CEM)/IC50 human tumors
valueType: TIht (CEM cells)

| compound | obsValue |
| --- | --- |
| CCN1CCC(O)(c2ccccc2)C(C(=O)c2ccccc2)C1 (stereo not drawn) [Compound 11a] | 1.51 |
| CCN1CCC(O)(/C=C/c2ccccc2)C(C(=O)/C=C/c2ccccc2)C1 (stereo not drawn) | 6.02 |
| CC[N+]1(C)CCC(O)(/C=C/c2ccc(Cl)c(Cl)c2)C(C(=O)/C=C/c2ccc(Cl)c(Cl)c2)C1 (stereo not drawn) [Compound 10c] | 7.53 |
| CCN1CCC(O)(/C=C/c2ccc(OC)cc2)C(C(=O)/C=C/c2ccc(OC)cc2)C1 (stereo not drawn) | 1.41 |
| CCN1CCC(O)(/C=C/c2ccc(C)cc2)C(C(=O)/C=C/c2ccc(C)cc2)C1 (stereo not drawn) | 2.80 |
| CCN(CC)CCC(=O)c1ccc(C)cc1 | 2.44 |
| CCN1CCC(O)(c2ccc(Cl)cc2)C(C(=O)c2ccc(Cl)cc2)C1 (stereo not drawn) [Compound 11b] | 1.23 |
| CCN(CC)CCC(=O)c1ccccc1 | 1.53 |
| CC[N+]1(C)CCC(O)(c2ccc(Cl)c(Cl)c2)C(C(=O)c2ccc(Cl)c(Cl)c2)C1 (stereo not drawn) [Compound 12c] | 2.70 |

----------
system: Molt 4/C8 cells; test: Cytotoxicity, Molt 4/C8 human T-lymphocytes; conditions: read-out: IC50 Molt 4/C8
Where a name gives a salt, the structure may show the parent alone.

| compound | systemTested | unitString | IC50 |
| --- | --- | --- | --- |
| CCN1CCC(O)(/C=C/c2ccc(Cl)cc2)C(C(=O)/C=C/c2ccc(Cl)cc2)C1 (stereo not shown) [Compound 9b, hydrochloride] | Molt 4/C8 cells | µM | 31.1 |

----------
tested on: L1210 cells; experiment: Cytotoxicity, murine L1210 leukemic cells; assay type: cell-based; details: Mus musculus, mean
Counter-ions that a name gives are not always drawn.
Hi! Could you tag entries with IC50 below 20 µM as 1 (yes), and those at or above as 0 (no)? Much appreciated.

| compound | systemTested | groupLabel |
| --- | --- | --- |
| CCN1CCC(O)(c2ccc(OC)cc2)C(C(=O)c2ccc(OC)cc2)C1 (stereo not drawn) [Compound 11e] | L1210 cells | 1 (yes) |
| CC[N+]1(C)CCC(O)(/C=C/c2ccc(Cl)c(Cl)c2)C(C(=O)/C=C/c2ccc(Cl)c(Cl)c2)C1 (stereo not drawn) [Compound 10c] | L1210 cells | 0 (no) |
| CCN1CCC(O)(c2ccc(Cl)cc2)C(C(=O)c2ccc(Cl)cc2)C1 (stereo not drawn) [Compound 11b] | L1210 cells | 1 (yes) |
| CCN(CC)CCC(=O)/C=C/c1ccc(C)cc1 | L1210 cells | 0 (no) |
| CC[N+]1(C)CCC(O)(/C=C/c2ccc(C)cc2)C(C(=O)/C=C/c2ccc(C)cc2)C1 (stereo not drawn) [Compound 10d] | L1210 cells | 1 (yes) |
| CCN1CCC(O)(/C=C/c2ccc(Cl)cc2)C(C(=O)/C=C/c2ccc(Cl)cc2)C1 (stereo not drawn) [Compound 9b, hydrochloride] | L1210 cells | 1 (yes) |

----------
test system: CEM cells; assay: Cytotoxicity, CEM human T-lymphocytes; conditions: IC50 T-lymphocytes (CEM)/IC50 P388
Counter-ions that a name gives are not always drawn.

| compound | TIP388 (CEM cells) |
| --- | --- |
| CCN1CCC(O)(c2ccc(C)cc2)C(C(=O)c2ccc(C)cc2)C1 (stereo not shown) [Compound 11d] | 4.50 |
| CCN1CCC(O)(c2ccccc2)C(C(=O)c2ccccc2)C1 (stereo not shown) [Compound 11a] | 42.70 |
| CCN1CCC(O)(c2ccc(O)cc2)C(C(=O)c2ccc(O)cc2)C1 (stereo not shown) [Compound 11f] | 30.46 |
| CCN(CC)CCC(=O)/C=C/c1ccccc1 | 19.92 |
| CCN(CC)CCC(=O)c1ccc(Cl)cc1 | 12.50 |
| CCN(CC)CCC(=O)c1ccccc1 | 14.81 |
| CCN(CC)CCC(=O)/C=C/c1ccc(Cl)c(Cl)c1 | 143.2 |
| CCN1CCC(O)(/C=C/c2ccc(Cl)cc2)C(C(=O)/C=C/c2ccc(Cl)cc2)C1 (stereo not shown) [Compound 9b, hydrochloride] | 18.31 |
| CCN(CC)CCC(=O)/C=C/c1ccc(OC)cc1 | 72.55 |
| CCN(CC)CCC(=O)/C=C/c1ccc(Cl)cc1 | 177.6 |

----------
system: CEM cells; assay: Cytotoxicity, CEM human T-lymphocytes; conditions: IC50 T-lymphocytes (CEM)/IC50 P388
Please use t whenever TIP388 (CEM cells) is not below 20, and f whenever it is.

| compound | groupLabel |
| --- | --- |
| CCN(CC)CC(C)(C)C(=O)/C=C/c1ccc(Cl)cc1 | f |
| CCN(CC)CCC(=O)c1ccc(C)cc1 | t |
| CC[N+]1(C)CCC(O)(/C=C/c2ccc(C)cc2)C(C(=O)/C=C/c2ccc(C)cc2)C1 (centres unmarked) [Compound 10d] | f |
| N[C@@H](Cc1ccc(N(CCCl)CCCl)cc1)C(=O)O [melphalan, reference compound] | f |

----------
tested on: Molt 4/C8 cells; assay: Cytotoxicity, Molt 4/C8 human T-lymphocytes; conditions: IC50 T-lymphocytes (Molt 4/C8)/IC50 L1210
Where a name gives a salt, the structure may show the parent alone.

| compound | TIL1210 (Molt 4/C8 cells) |
| --- | --- |
| CCN(CC)CCC(=O)/C=C/c1ccc(C)cc1 | 1.05 |
| CCN1CCC(O)(/C=C/c2ccc(C)cc2)C(C(=O)/C=C/c2ccc(C)cc2)C1 (stereo not shown) | 4.44 |
| CCN(CC)CCC(=O)/C=C/c1ccc(Cl)cc1 | 0.98 |
| CCN(CC)CCC(=O)/C=C/c1ccc(OC)cc1 | 1.17 |
| CCN(CC)CCC(=O)c1ccc(C)cc1 | 2.96 |
| CC[N+]1(C)CCC(O)(/C=C/c2ccc(Cl)c(Cl)c2)C(C(=O)/C=C/c2ccc(Cl)c(Cl)c2)C1 (stereo not shown) [Compound 10c] | 1.12 |
| CCN1CCC(O)(/C=C/c2ccc(C)c(C)c2)C(C(=O)/C=C/c2ccc(C)c(C)c2)C1 (stereo not shown) [Compound 13b] | 0.67 |
| CCN1CCC(O)(c2ccc(O)cc2)C(C(=O)c2ccc(O)cc2)C1 (stereo not shown) [Compound 11f] | 4.32 |
| CCN(CC)CCC(=O)c1ccccc1 | 0.86 |
| CCN1CCC(O)(c2ccc(C)cc2)C(C(=O)c2ccc(C)cc2)C1 (stereo not shown) [Compound 11d] | 0.89 |
| CCN1CCC(O)(c2ccc(OC)cc2)C(C(=O)c2ccc(OC)cc2)C1 (stereo not shown) [Compound 11e] | 2.94 |
| CC[N+]1(C)CCC(O)(/C=C/c2ccc(C)cc2)C(C(=O)/C=C/c2ccc(C)cc2)C1 (stereo not shown) [Compound 10d] | 0.45 |
| CCN1CCC(O)(c2ccc(Cl)cc2)C(C(=O)c2ccc(Cl)cc2)C1 (stereo not shown) [Compound 11b] | 3.68 |
| CCN1CCC(O)(/C=C/c2cccc(C)c2)C(C(=O)/C=C/c2cccc(C)c2)C1 (stereo not shown) [Compound 13a] | 1.14 |
| CCN(CC)CCC(=O)/C=C/c1ccccc1 | 1.66 |
| CC[N+]1(C)CCC(O)(c2ccc(Cl)c(Cl)c2)C(C(=O)c2ccc(Cl)c(Cl)c2)C1 (stereo not shown) [Compound 12c] | 0.84 |
| CCN(CC)CC(C)(C)C(=O)/C=C/c1ccc(Cl)cc1 | 1.13 |
| CCN(CC)CCC(=O)c1ccc(Cl)cc1 | 0.62 |
| O=C(CCN1CCN(CCC(=O)c2ccccc2)CC1)c1ccccc1 | 2.69 |
| CCN1CCC(O)(/C=C/c2ccccc2)C(C(=O)/C=C/c2ccccc2)C1 (stereo not shown) | 5.64 |
| CCN1CCC(O)(c2ccccc2)C(C(=O)c2ccccc2)C1 (stereo not shown) [Compound 11a] | 1.80 |
| CCN1CCC(O)(/C=C/c2ccc(OC)cc2)C(C(=O)/C=C/c2ccc(OC)cc2)C1 (stereo not shown) | 0.81 |
| CCN(CC)CCC(=O)/C=C/c1ccc(Cl)c(Cl)c1 | 0.74 |
| CCN1CCC(O)(/C=C/c2ccc(Cl)cc2)C(C(=O)/C=C/c2ccc(Cl)cc2)C1 (stereo not shown) [Compound 9b, hydrochloride] | 4.46 |
| O=C(/C=C/c1ccccc1)CCN1CCN(CCC(=O)/C=C/c2ccccc2)CC1 | 0.95 |
